Reference source for all entries: paper PMC11199706

# Target of assay: NOPLight (human (NOPR part))
# Assay method text: other fluorescence titration; apparent; NOPLight on transfected HEK293T cells in HBSS, N/OFQ applied manually during confocal imaging (20x), normalised ΔF/F0 fitted with a three-parameter Hill equation
pEC50: −log10 of the molar value.

# Binder, pEC50
data = [
    ("FGGFTGARKSARKLANQ [nociceptin/orphanin-FQ peptide]", 7.54),
]
